Data provenance: the supplement of paper PMC10567573

Known protein stability index of a selection of variants
B1: C10orf62 (parent)
chain: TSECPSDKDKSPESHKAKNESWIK

- Variants of: B1
- PROTOCOL: protein stability index of a GFP-peptide fusion (GPS, HEK-293T) (PSI 1-6); higher = more stable;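 also: lentivirally expressed fusions sorted by FACS into six bins by GFP to DsRed ratio, PSI derived from sequencing read proportions per bin multiplied by bin number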
- STUDY CONDITIONS: c terminus: a fixed tail appended
PARAMETER: protein stability index

variant_designation=K18L parameter="protein stability index" measured_value=4.18
variant_designation=D7P parameter="protein stability index" measured_value=3.6
variant_designation=K8D parameter="protein stability index" measured_value=3.35
variant_designation=K10A parameter="protein stability index" measured_value=3.64
variant_designation=I23R parameter="protein stability index" measured_value=5.25
variant_designation=K24W parameter="protein stability index" measured_value=3.43
variant_designation=E3D parameter="protein stability index" measured_value=2.73
variant_designation=H15M parameter="protein stability index" measured_value=2.83
variant_designation=I23H parameter="protein stability index" measured_value=5.18
variant_designation=S11K parameter="protein stability index" measured_value=3.81
variant_designation=K10C parameter="protein stability index" measured_value=3.95
variant_designation=H15L parameter="protein stability index" measured_value=3.48
variant_designation=K24Q parameter="protein stability index" measured_value=2.27
variant_designation=E3Q parameter="protein stability index" measured_value=2.94
variant_designation=S21M parameter="protein stability index" measured_value=4.36
variant_designation=A17N parameter="protein stability index" measured_value=3.56
variant_designation=E3H parameter="protein stability index" measured_value=2.84
variant_designation=T1L parameter="protein stability index" measured_value=4.35
variant_designation=E20G parameter="protein stability index" measured_value=4.3
variant_designation=S21I parameter="protein stability index" measured_value=4.77
variant_designation=S14P parameter="protein stability index" measured_value=3.2
variant_designation=S21Y parameter="protein stability index" measured_value=4.3
variant_designation=K18S parameter="protein stability index" measured_value=4.15
variant_designation=K16E parameter="protein stability index" measured_value=4.94
variant_designation=S14Q parameter="protein stability index" measured_value=4.13
variant_designation=N19Q parameter="protein stability index" measured_value=3.13
variant_designation=S2L parameter="protein stability index" measured_value=3.24
variant_designation=S6G parameter="protein stability index" measured_value=3.62
variant_designation=E20H parameter="protein stability index" measured_value=4.51
variant_designation=E3S parameter="protein stability index" measured_value=3.34
variant_designation=K24I parameter="protein stability index" measured_value=2.69
variant_designation=N19T parameter="protein stability index" measured_value=2.94
variant_designation=S11W parameter="protein stability index" measured_value=3.26
variant_designation=S11D parameter="protein stability index" measured_value=2.29
variant_designation=I23C parameter="protein stability index" measured_value=2.89
variant_designation=D7C parameter="protein stability index" measured_value=3.2
variant_designation=I23V parameter="protein stability index" measured_value=1.74
variant_designation=K18I parameter="protein stability index" measured_value=3.01
variant_designation=H15V parameter="protein stability index" measured_value=3.88
variant_designation=K8V parameter="protein stability index" measured_value=3.62
variant_designation=K16P parameter="protein stability index" measured_value=4.62
variant_designation=K24F parameter="protein stability index" measured_value=3.37
variant_designation=K10T parameter="protein stability index" measured_value=3.04
variant_designation=P5W parameter="protein stability index" measured_value=3.04
variant_designation=P12R parameter="protein stability index" measured_value=1.66
variant_designation=D9S parameter="protein stability index" measured_value=3.11
variant_designation=W22R parameter="protein stability index" measured_value=5.84
variant_designation=D7V parameter="protein stability index" measured_value=3.52
variant_designation=T1C parameter="protein stability index" measured_value=2.88
variant_designation=S6R parameter="protein stability index" measured_value=2.75
variant_designation=P12M parameter="protein stability index" measured_value=3.19
variant_designation=C4N parameter="protein stability index" measured_value=3.4
variant_designation=K10N parameter="protein stability index" measured_value=3.73
variant_designation=T1Q parameter="protein stability index" measured_value=3.27
variant_designation=P12H parameter="protein stability index" measured_value=3.44
variant_designation=H15Q parameter="protein stability index" measured_value=3.37
variant_designation=C4G parameter="protein stability index" measured_value=3.94
variant_designation=I23S parameter="protein stability index" measured_value=3.79
variant_designation=S2Y parameter="protein stability index" measured_value=3.47
variant_designation=K16D parameter="protein stability index" measured_value=4.2
variant_designation=E13P parameter="protein stability index" measured_value=2.63
variant_designation=K24N parameter="protein stability index" measured_value=3.17
variant_designation=E3L parameter="protein stability index" measured_value=3.5
variant_designation=T1V parameter="protein stability index" measured_value=2.3
variant_designation=S6I parameter="protein stability index" measured_value=3.35
variant_designation=I23M parameter="protein stability index" measured_value=4.7
variant_designation=W22C parameter="protein stability index" measured_value=5.18
variant_designation=K24S parameter="protein stability index" measured_value=3.48
variant_designation=S21Q parameter="protein stability index" measured_value=4.62
variant_designation=S21E parameter="protein stability index" measured_value=5.3
variant_designation=K10V parameter="protein stability index" measured_value=2.75
variant_designation=S14H parameter="protein stability index" measured_value=3.71
variant_designation=E13L parameter="protein stability index" measured_value=2.21
